target.system: farnesyl protein transferase (FPT) (Rattus norvegicus, UniProt Q02293+Q04631)
Construct: were partially purified from rat brain by ammonium sulfate fractionation; from tissue; host or cells: rat brain
protocol.notes: In vitro enzyme assay: inhibition of farnesyl protein transferase (FPT), Ras-CVLS farnesylation
Assay type: biochemical
conditions.used: Table 2; read-out: FPT IC50
observable: IC50

[[record]]
compound = "COc1ccc(S(=O)(=O)N2CCC/C(=C3/c4ccc(Cl)cc4CCc4cccnc43)C2)cc1"
result = "> 42 µM"

[[record]]
compound = "O=S(=O)(c1ccc(F)cc1)N1CCC/C(=C2\\c3ccc(Cl)cc3CCc3cccnc32)C1"
result = "1.34 µM"

[[record]]
compound = "Cc1ccc(S(=O)(=O)N2CCC/C(=C3\\c4ccc(Cl)cc4CCc4cccnc43)C2)cc1"
result = "> 13 µM"

[[record]]
compound = "O=C(Nc1ccccc1)N1CCC/C(=C2\\c3ccc(Cl)cc3CCc3cccnc32)C1"
result = "> 14 µM"

[[record]]
compound = "O=C(Cc1ccncc1)N1CCCC(C2c3ccc(Cl)cc3CCc3cccnc32)C1 (centres unmarked)"
result = "> 13.9 µM"

[[record]]
compound = "O=S(=O)(c1ccccc1)N1CCC/C(=C2\\c3ccc(Cl)cc3CCc3cccnc32)C1"
result = "0.71 µM"

[[record]]
compound = "O=S(=O)(c1cccnc1)N1CCCC(C2c3ccc(Cl)cc3C=Cc3cccnc32)C1 (centres unmarked)"
result = "7.5 µM"

[[record]]
compound = "O=S(=O)(c1cccnc1)N1CCC/C(=C2\\c3ccc(Cl)cc3CCc3cccnc32)C1"
result = "0.97 µM"


Value source: patent US5684013A
